Would you kindly list IC50 for each of these compounds?
- system: human A2a adenosine receptor (Homo sapiens (Human), UniProt P29274)
- Sequence (P29274 whole entry): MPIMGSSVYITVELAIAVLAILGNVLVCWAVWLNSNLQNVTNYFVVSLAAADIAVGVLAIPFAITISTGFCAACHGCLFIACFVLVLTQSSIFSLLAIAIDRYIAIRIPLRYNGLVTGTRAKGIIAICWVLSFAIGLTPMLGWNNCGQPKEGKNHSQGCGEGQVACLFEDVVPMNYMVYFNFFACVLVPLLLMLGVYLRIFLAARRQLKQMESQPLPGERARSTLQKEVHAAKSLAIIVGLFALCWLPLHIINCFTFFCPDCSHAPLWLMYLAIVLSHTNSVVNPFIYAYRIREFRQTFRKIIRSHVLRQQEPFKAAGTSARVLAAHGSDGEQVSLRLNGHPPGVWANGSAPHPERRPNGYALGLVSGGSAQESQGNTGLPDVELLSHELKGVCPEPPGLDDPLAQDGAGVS
- experiment-notes: A2A antagonism in cAMP cell-based assay (LANCE cAMP, HEK293 cells, 300 nM adenosine)
- condition-label: values marked *: cAMP cell-based assay

Some solved entries appear below for comparison.
>>> df
                                   compound  assay_metric  obs_value
0  COc1ccc2c(c1)nc(N)n1nc([C@@H]3C[C@@H](C(F)(F)F)CN(c4cnn(CC(C)(C)O)c4)C3)nc21 (single isomer, unassigned) [Example 218B]          IC50   0.635 µM
1  COc1cccc2c1nc(N)n1nc(C3CCC(C)N(c4cnn(C(C)(C)CO)c4)C3)nc21 (single isomer, unassigned) [Example 146C]          IC50   0.101 µM
2  COc1cccc2c1nc(N)n1nc([C@@H]3CCCN(c4ccc(C(F)(F)F)cn4)C3)nc21          IC50  0.0106 µM
3  COc1ccc2c(c1)nc(N)n1nc([C@H]3C[C@@H](C)CN(c4cn([C@H](C)[C@@H](C)O)nc4C)C3)nc21 [Example 219C]          IC50  0.0386 µM

Each compound below has a recorded value; state its IC50.
1. COc1ccc2c(c1)nc(N)n1nc([C@@H]3C[C@@H](C)CN(c4cnn(C(C)(C)CO)c4)C3)nc21 [Example 222D]
2. COc1cccc2c1nc(N)n1nc([C@H]3CC[C@@H](C)N(c4cn(CC(C)(C)O)nc4C)C3)nc21 [Example 145D]
3. COc1ccc2c(c1)nc(N)n1nc([C@@H]3C[C@H](C)CN(c4cn([C@@H](C)[C@H](C)O)nc4C)C3)nc21 [Example 219D]
4. COc1cccc2c1nc(N)n1nc([C@@H]3CCCN(c4cc(C(F)(F)F)ccn4)C3)nc21
5. COc1ccc2c(c1)nc(N)n1nc([C@H]3C[C@H](C)CN(c4cnn(C(C)(C)CO)c4)C3)nc21 [Example 222B]

Marked response:
0.0333 µM
0.0303 µM
0.0443 µM
0.0405 µM
0.0638 µM
